System: ENR+CD organoids (ISC to Paneth cell differentiation)
Assay: Primary screen: basal (non-stimulated) lysozyme secretion LYZ.NS, 2.5-D 384-well ENR+CD organoid differentiation
Format: cell-based, mouse
Details: primary screen, dose 0.08 uM
Text: High-throughput screening.
recorded_endpoint: Z.LYZ.NS (standard z score)

[
  {
    "molecule": "Cl.Cl.O=S(=O)(NCCNC/C=C/c1ccc(Br)cc1)c1cccc2cnccc12 [H 89 2HCl]",
    "measured_target": "ENR+CD organoids (ISC to Paneth cell differentiation)",
    "reported_measurement": 1.223
  },
  {
    "molecule": "CC1=C(C(=O)Nc2cc3cn[nH]c3cc2F)C(c2ccc(C(F)(F)F)cc2)CC(=O)N1 (stereo not shown) [GSK429286A]",
    "measured_target": "ENR+CD organoids (ISC to Paneth cell differentiation)",
    "reported_measurement": 1.197
  },
  {
    "molecule": "COc1cc(F)c(C(C)C)cc1-c1ccc(C(F)(F)F)cc1CN1C(=O)O[C@H](c2cc(C(F)(F)F)cc(C(F)(F)F)c2)[C@@H]1C",
    "measured_target": "ENR+CD organoids (ISC to Paneth cell differentiation)",
    "reported_measurement": 0.112
  },
  {
    "molecule": "CC[C@H](C)C(=O)O[C@H]1C[C@@H](C)C=C2C=C[C@H](C)[C@H](CC[C@@H]3C[C@@H](O)CC(=O)O3)[C@H]21",
    "measured_target": "ENR+CD organoids (ISC to Paneth cell differentiation)",
    "reported_measurement": 0.017
  }
]

----------
System: ENR+CD organoids
Assay: Primary screen: ATP (CellTiter-Glo 3D, CTG) cell number/viability, 2.5-D 384-well ENR+CD organoids;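 note: compounds given at plating and again on day 3 over a 6-day differentiation from ENR+CV stem-cell-enriched precursors, ATP measured on day 6, plate median as control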
Settings: primary screen, dose 10.00 uM, standard z score

[
  {
    "compound": "O=C(NCCN1CCOCC1)c1ccc(Cl)cc1 [Moclobemide (Ro 111163)]",
    "measured_target": "ENR+CD organoids",
    "Z.CTG": 0.100
  },
  {
    "compound": "O=C(NOCC1CC1)c1ccc(F)c(F)c1Nc1ccc(I)cc1Cl",
    "measured_target": "ENR+CD organoids",
    "Z.CTG": "−1.901"
  },
  {
    "compound": "COc1cc2c(N3CCN(C(=O)Nc4ccc(OC(C)C)cc4)CC3)ncnc2cc1OCCCN1CCCCC1",
    "measured_target": "ENR+CD organoids",
    "Z.CTG": 1.401
  },
  {
    "compound": "COc1cc(OC)c(/C=C/S(=O)(=O)Cc2ccc(OC)c(NCC(=O)O)c2)c(OC)c1",
    "measured_target": "ENR+CD organoids",
    "Z.CTG": "−2.022"
  },
  {
    "compound": "Cc1[nH]c(/C=C2\\C(=O)Nc3ccc(S(=O)(=O)Cc4c(Cl)cccc4Cl)cc32)c(C)c1C(=O)N1CCC[C@@H]1CN1CCCC1",
    "measured_target": "ENR+CD organoids",
    "Z.CTG": 0.057
  },
  {
    "compound": "Cl.NC(=O)c1cnc(N[C@@H]2CCCC[C@@H]2N)nc1Nc1cccc(-n2nccn2)c1 [PRT062607 (P505-15, BIIB057) HCl]",
    "measured_target": "ENR+CD organoids",
    "Z.CTG": "−0.788"
  },
  {
    "compound": "COc1ccc(C(=O)Nc2sc3c(c2C(N)=O)CCCC3)cc1OC",
    "measured_target": "ENR+CD organoids",
    "Z.CTG": "−0.212"
  }
]
